- Test system: Human immunodeficiency virus 1
- assay_text: Evaluated for anti-HIV activity
- Type: functional, organism-based
Measured EC50, listed per entry for reference.

substance_smiles	EC50
Nc1ncnc2c1ncn2[C@H]1O[C@@H](CO)C=C1F	1.5 µM
OC[C@H]1C=C(F)[C@@H](n2cnc3c(O)ncnc32)O1	4.7 µM
Nc1nc(O)c2ncn([C@@H]3O[C@@H](CO)C=C3F)c2n1	76.9 µM
Cc1cn([C@H]2O[C@@H](CO)C=C2F)c(=O)[nH]c1=O	> 100 µM
Nc1nc(Cl)c2ncn([C@H]3O[C@@H](CO)C=C3F)c2n1	> 100 µM
Nc1nc(F)nc2c1ncn2[C@H]1O[C@@H](CO)C=C1F	2.2 µM
Nc1ccn([C@H]2O[C@@H](CO)C=C2F)c(=O)n1	0.51 µM
Nc1nc(F)nc2c1ncn2[C@@H]1O[C@@H](CO)C=C1F	> 100 µM
Nc1ncnc2c1ncn2[C@@H]1O[C@@H](CO)C=C1F	47.6 µM
Nc1nc(O)c2ncn([C@H]3O[C@@H](CO)C=C3F)c2n1	> 100 µM
O=c1ccn([C@@H]2O[C@@H](CO)C=C2F)c(=O)[nH]1	> 100 µM

Attribution: ChEMBL document CHEMBL1132629
